# assayed.target: HLA-B*5401 (human)
# experiment.summary: inhibition of 125I probe peptide, purified HLA
# cond: remark: other sources report otherwise
endpoint.name: IC50 (nM)

{"columns": ["binder", "IC50 (nM)"],
 "data": [
  ["IPWQRLLLTI [CEA.13.I10]", 270]
]}

P. IPWQRLLLTA [CEA.13, 10 AA]
Q. YPNASLLI [CEA.102]
Pick one: P or Q . Which has the bigger IC50 number? Your choice should be expressed through its label. Q
